- SYSTEM NAME: T1, Cynomolgus CD3 on HSC-F cells (cynomolgus, UniProt Q95LI5 22-198)
- T1 construct: whole, on cells; Target is the endogenous CD3 complex on cells; also called Cyno CD3 HSC-F cells; Cyno CD3+ HSC-F cells
- T1 sequence (Q95LI5 22-198): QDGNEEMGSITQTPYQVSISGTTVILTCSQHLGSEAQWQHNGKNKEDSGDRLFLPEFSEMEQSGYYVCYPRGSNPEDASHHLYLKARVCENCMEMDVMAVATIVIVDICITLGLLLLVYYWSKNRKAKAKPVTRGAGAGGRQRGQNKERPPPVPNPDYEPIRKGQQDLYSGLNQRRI
- EXPERIMENTAL PROTOCOL: flow cytometry, 100 nM IgG1, pH 7.4
QUANTITY MEASURED: NCB (Normalized Cell Binding)
// print number alone

Briefly, NCB (Normalized Cell Binding) measured for Antibody No. A001 (ADI-26906) IgG1 (antibody, V domains shown, IgG1, CHO-produced) VH: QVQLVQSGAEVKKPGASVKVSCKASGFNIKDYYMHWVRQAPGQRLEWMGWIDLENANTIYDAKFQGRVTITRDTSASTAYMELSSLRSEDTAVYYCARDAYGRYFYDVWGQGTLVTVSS VL: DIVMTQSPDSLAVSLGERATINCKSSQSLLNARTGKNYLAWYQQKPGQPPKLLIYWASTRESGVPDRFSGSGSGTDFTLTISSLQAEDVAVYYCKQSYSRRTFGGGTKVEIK : 400

Briefly, NCB (Normalized Cell Binding) measured for Antibody No. V014 (ADI-76357) IgG1 (antibody, V domains shown, IgG1, CHO-produced) VH: QVQLVQSGAEVKKPGASVKVSCKASGFDIKDYYMHWVRQAPGQRLEWMGWIDLENANTIYDAKFQGRVTITRDTSASTAYMELSSLRSEDTAVYYCARDQYGRYFYDVWGQGTLVTVSS VL: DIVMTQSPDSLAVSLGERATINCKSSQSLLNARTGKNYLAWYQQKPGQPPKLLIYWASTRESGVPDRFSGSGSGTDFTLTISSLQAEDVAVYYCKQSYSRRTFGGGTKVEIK : 377

Attribution: patent US20240317858A1
